# Measured On: T1, HLA-A*02:01 (peptide-receptive MHC class I molecule of the UV-ligand exchange assay) (human)
# T1 construct: MHC monomer first loaded with a UV-sensitive peptide (not identified) that is cleaved by UV light and exchanged for the test peptide; captured on streptavidin plates
# Procedure Details: UV-ligand exchange, anti-b2m ELISA; peptide exchange yield grade (>=10% = +; >=20% = ++; >=50 = +++; >=75% = ++++)
Measured Endpoint: peptide exchange yield

1) ALQEALENA (synthetic peptide; source gene NUP155) [ALQEALENA (SEQ ID NO: 80)]    20 to 50%
2) GLLVGSEKVTM (synthetic peptide; source genes KRT14, KRT16, KRT16P3) [GLLVGSEKVTM (SEQ ID NO: 69)]    50 to 75%
3) KLSDSATYL (synthetic peptide) [KLSDSATYL (SEQ ID NO: 23)]    50 to 75%
4) ASDPILYRPVAV (synthetic peptide; source gene PKM) [ASDPILYRPVAV (SEQ ID NO: 71)]    50 to 75%
5) FLLRFSQDNA (synthetic peptide; source gene LAP3) [FLLRFSQDNA (SEQ ID NO: 36)]    20 to 50%
6) YTQPFSHYGQAL (synthetic peptide; source gene RNPEP) [YTQPFSHYGQAL (SEQ ID NO: 37)]    50 to 75%
7) HLLGHLEQA (synthetic peptide; source gene PRDM15) [HLLGHLEQA (SEQ ID NO: 82)]    50 to 75%
8) KLFGHLTSA (synthetic peptide; source gene PHTF2) [KLFGHLTSA (SEQ ID NO: 51)]    20 to 50%
